Compiled pIC50 measurements on Cathepsin L2 (Homo sapiens, UniProt O60911) taken from the literature.
pIC50: −log10 of the molar value.
property name: pIC50

Example cases with answers are listed next.
[
  {
    "molecule": "Cc1nn(C)cc1C(=O)N[C@@H](Cc1cccc(Cl)c1)C(=O)NCC#N",
    "pIC50": 5.90
  },
  {
    "molecule": "CCCC[C@H](NC(=O)O[C@H](Cc1nnc(-c2ccc(F)cc2)o1)C(C)(C)C)C(=O)C(=O)NCc1cccnc1",
    "pIC50": 4.85
  },
  {
    "molecule": "Cc1cc(C(=O)N[C@@H](Cc2cccc(Cl)c2)C(=O)NCC#N)c(C)s1",
    "pIC50": 6.30
  },
  {
    "molecule": "CCCC[C@H](NC(=O)OC1C2CC3CC(C2)CC1C3)C(=O)C(=O)N[C@H](C)c1ccccc1 (some centres not stated)",
    "pIC50": 6.41
  },
  {
    "molecule": "Cn1nc(C(C)(C)C)cc1C(=O)N[C@@H](Cc1cccc(-c2nnco2)c1)C(=O)NCC#N",
    "pIC50": 7.70
  }
]

(1) CNC(=O)C(=O)C(C)NC(=O)c1ccc(OCc2ccccn2)c(C(F)(F)F)c1Cl (configuration not stated)
(2) CCc1cc(C(=O)N[C@@H](Cc2cccc(Cl)c2)C(=O)NCC#N)n(C)n1
Q: Kindly compare 1 with 2 and tell me which has the lower pIC50 figure. Provide the label of your selected option as the answer.
A: 1

(a) CCCC[C@H](NC(=O)O[C@H](Cn1cnc(-c2ccc(C(F)(F)F)cc2)c1)C(C)(C)C)C(=O)C(=O)Nc1ccn[nH]1
(b) N#CCNC(=O)[C@H](Cc1cccc(-c2cn[nH]c2)c1)NC(=O)c1ccccc1
Q: I'd appreciate it if you could identify which of a and b has the greater pIC50. Provide the label of your selected option as the answer.
A: a
(a: 6.89, b: 5.80)

(a) CCCC[C@H](NC(=O)O[C@H](Cc1nnc(-c2ccccc2)o1)C(C)(C)CC)C(=O)C(=O)N[C@H](C)c1ccccc1
(b) N#CCNC(=O)[C@H](Cc1cccc(Cl)c1)NC(=O)C1CCCCC1
Q: I'd appreciate it if you could identify which of a and b has the greater pIC50. Provide the label of your selected option as the answer.
A: a

(P) CC(C)[C@H](N[C@@H](c1ccc(-c2ccc(C3(C(N)=O)CC3)cc2)cc1)C(F)(F)F)C(=O)N[C@H](C#N)Cc1ccc(C#N)cc1F
(Q) CCCC[C@H](NC(=O)O[C@H](Cc1nnc(-c2ccc(C(F)(F)F)cc2)o1)C(C)(C)C)C(=O)C(=O)N[C@H](C)c1ccccc1
Q: I'd appreciate it if you could identify which of P and Q has the greater pIC50. Provide the label of your selected option as the answer.
A: P

(I) CC(C)(C)NC(=O)N[C@H](C(=O)N1C[C@H]2[C@@H]([C@H]1C(=O)NC(CC1CCC1)C(=O)C(N)=O)C2(C)C)C(C)(C)C (some centres not stated)
(II) N#CCNC(=O)[C@H](Cc1cccc(Cl)c1)NC(=O)c1ccccc1
Q: Kindly compare I with II and tell me which has the lower pIC50 figure. Provide the label of your selected option as the answer.
A: II

###

# experimental target: Cathepsin L2 (Homo sapiens)
# Sequence (O60911 whole entry): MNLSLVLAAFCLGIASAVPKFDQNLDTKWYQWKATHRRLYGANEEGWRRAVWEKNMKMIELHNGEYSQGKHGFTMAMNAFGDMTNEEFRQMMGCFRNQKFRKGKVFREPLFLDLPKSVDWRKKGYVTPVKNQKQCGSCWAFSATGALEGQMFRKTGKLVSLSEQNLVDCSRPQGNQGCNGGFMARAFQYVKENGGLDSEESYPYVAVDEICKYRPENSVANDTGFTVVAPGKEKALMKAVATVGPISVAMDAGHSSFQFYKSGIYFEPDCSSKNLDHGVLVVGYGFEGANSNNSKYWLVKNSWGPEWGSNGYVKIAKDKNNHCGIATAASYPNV
pIC50: −log10 of the molar value.
Compiled pIC50 measurements on Cathepsin L2 (Homo sapiens) taken from the literature.
property name: pIC50

Example cases with answers are listed next.
[
  {
    "compound": "CCCC[C@H](NC(=O)OC1C2(C)CCC(C2)C1(C)C)C(=O)C(=O)N[C@H](C)c1ccccc1 (some centres undefined)",
    "pIC50": 6.74
  },
  {
    "compound": "CCC(NC(=O)c1ccc(OCc2ccccn2)c(C(F)(F)F)c1Cl)C(=O)C(=O)Nc1ccn(C)n1 (centres undefined)",
    "pIC50": 7.78
  },
  {
    "compound": "N#CCNC(=O)[C@H](Cc1cccc(-c2cccnn2)c1)NC(=O)c1ccccc1",
    "pIC50": 7.20
  },
  {
    "compound": "CCCC[C@H](NC(=O)O[C@H](Cc1nnc(-c2ccc(F)cc2)o1)C(C)(C)C)C(=O)C(=O)Nc1ccn[nH]1",
    "pIC50": 3.64
  },
  {
    "compound": "CCCC[C@H](NC(=O)O[C@H]1CCCc2ccccc21)C(=O)C(=O)N[C@H](C)c1ccccc1",
    "pIC50": 6.47
  }
]

(a) N#CCNC(=O)[C@H](Cc1cccc(-c2nnco2)c1)NC(=O)c1ccccc1
(b) Cc1cccc(C(=O)N[C@@H](Cc2cccc(Cl)c2)C(=O)NCC#N)c1C
Q: Kindly compare a with b and tell me which has the lower pIC50 figure. Provide the label of your selected option as the answer.
A: b
(b: 5.40, a: 6.80)

(1) Cc1cc(C)cc(C(=O)N[C@@H](Cc2cccc(Cl)c2)C(=O)NCC#N)c1
(2) N#CCNC(=O)[C@H](Cc1cccc(-c2cccnc2)c1)NC(=O)c1ccccc1
Q: I'd appreciate it if you could identify which of 1 and 2 has the greater pIC50. Provide the label of your selected option as the answer.
A: 1
(1: 6.70, 2: 5.40)
